# MEASUREMENT_TARGET: Human GLP-1 receptor (Homo sapiens, UniProt P43220)
# Construct: expressed in transfected cells
# Sequence (P43220 24-463): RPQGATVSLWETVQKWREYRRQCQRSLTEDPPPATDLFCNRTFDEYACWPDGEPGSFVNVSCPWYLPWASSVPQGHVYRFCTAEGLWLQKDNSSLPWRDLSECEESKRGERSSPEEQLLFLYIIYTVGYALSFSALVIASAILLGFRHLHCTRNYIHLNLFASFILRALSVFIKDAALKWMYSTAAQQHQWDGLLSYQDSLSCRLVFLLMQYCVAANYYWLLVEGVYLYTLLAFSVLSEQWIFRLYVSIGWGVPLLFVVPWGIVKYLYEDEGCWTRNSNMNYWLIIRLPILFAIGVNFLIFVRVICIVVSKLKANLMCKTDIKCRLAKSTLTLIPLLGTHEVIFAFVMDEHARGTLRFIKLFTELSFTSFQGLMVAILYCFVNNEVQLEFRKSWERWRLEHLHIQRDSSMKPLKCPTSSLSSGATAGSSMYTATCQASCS
# PROTOCOL_SUMMARY: Measurement of GLP-1 receptor agonist activity (cAMP assay)
# Assay type: cell-based
# STATED_CONDITIONS: CHO-K1, maximum effect, cAMP increase in GLP-1 R/CHO-K1 cells; 2 nM human GLP-1 (7-36) = 100%, DMSO only = 0%; read-out: Emax
READOUT_TYPE: Emax (%)

COMPOUND | READOUT_TYPE | RESULT_UNIT | RESULT_VALUE
C[C@H]1c2nc(OCc3ccc(OC(F)F)cc3F)c(C(F)(F)F)cc2CCN1Cc1nc2ccc(C(=O)O)nc2n1C[C@@H]1CCO1 [Compound I-289] | Emax | % | 117
COc1cc(C(=O)O)cc2c1nc(CN1CCc3cc(C(F)(F)F)c(OCc4cc(F)c(Cl)cc4F)cc3[C@@H]1C)n2C[C@@H]1CCO1 [Compound I-234] | Emax | % | 109
C[C@H]1c2nc(OCc3ccc(Cl)cn3)c(C(F)(F)F)cc2CCN1Cc1nc2ccc(C(=O)O)c(F)c2n1C[C@@H]1CCO1 [Compound I-355] | Emax | % | 119
O=C(O)c1ccc2nc(CN3CCc4cc(C(F)(F)F)c(OCc5c(F)cc(Cl)cc5F)nc4C3)n(C[C@@H]3CCO3)c2c1F [Compound I-301] | Emax | % | 117
C[C@H]1c2nc(OCc3c(F)cc(F)cc3F)c(C(F)(F)F)cc2CCN1Cc1nc2ccc(C(=O)O)c(F)c2n1C[C@@H]1CCO1 [Compound I-361] | Emax | % | 108
C[C@H]1c2nc(OCc3cc(F)c(Cl)cc3F)c(C(F)(F)F)cc2CCN1Cc1nc2ccc(C(=O)O)cc2n1C[C@@H]1CCO1 [Compound I-257] | Emax | % | 115

---

# MEASUREMENT_TARGET: Human GLP-1 receptor (Homo sapiens, UniProt P43220)
# Construct: expressed in transfected cells
# PROTOCOL_SUMMARY: Measurement of GLP-1 receptor agonist activity (cAMP assay)
# Assay type: cell-based
# STATED_CONDITIONS: CHO-K1, hGLP-1R/CHO-K1 cells, cAMP; 100% = human GLP-1 (7-36) at 2 nM, 0% = DMSO only; read-out: Emax(%)
READOUT_TYPE: Emax (%)

SUBSTANCE_SMILES | Emax [%]
C[C@H]1c2cc(OCc3ccc(Cl)cc3Cl)c(C(F)(F)F)cc2CCN1Cc1nc2ccc(C(=O)O)c(F)c2n1C[C@@H]1CCO1 | 123
N#CCC1(Cn2c(CN3CCc4cc(C(F)(F)F)c(OCc5ccc(Cl)cc5F)cc4C3)nc3ccc(C(=O)O)cc32)CC1 | 102
O=C(O)c1ccc2nc(CN3CCc4cc(C(F)(F)F)c(OCc5ccc(F)c(F)c5)cc4C3)n(C[C@@H]3CCO3)c2c1 | 111
O=C(O)c1ccc2nc(CN3CCc4cc(C(F)(F)F)c(OCc5c(F)cc(C(F)F)cc5F)cc4C3)n(C[C@@H]3CCO3)c2c1 | 103
O=C(O)c1ccc2nc(CN3CCc4cc(C(F)(F)F)c(OCc5ncc(Cl)cc5F)cc4C3)n(C[C@@H]3CCO3)c2c1 | 114
C[C@H]1c2cc(OCc3ccc(C4CC4)cc3)c(C(F)(F)F)cc2CCN1Cc1nc2ccc(C(=O)O)c(F)c2n1C[C@@H]1CCO1 | 96.3
O=C(O)c1ccc2nc(CN3CCc4cc(C(F)(F)F)c(OCc5ccc(OC(F)(F)F)cc5)cc4C3)n(C[C@@H]3CCO3)c2c1 | 106
Cc1cc2c(cc1OCc1ccc(F)cc1F)CN(Cc1nc3ccc(C(=O)O)cc3n1C[C@@H]1CCO1)CC2 | 81.3
O=C(O)c1ccc2nc(CN3CCc4cc(C(F)(F)F)c(OCc5c(F)cccc5Cl)cc4C3)n(C[C@@H]3CCO3)c2c1 | 94

---

# MEASUREMENT_TARGET: Human GLP-1 receptor (Homo sapiens, UniProt P43220)
# Construct: expressed in transfected cells
# PROTOCOL_SUMMARY: Measurement of GLP-1 receptor agonist activity (cAMP assay)
# Format: cell-based
# STATED_CONDITIONS: CHO-K1, hGLP-1R/CHO-K1 cells, cAMP; 100% = human GLP-1 (7-36) at 2 nM, 0% = DMSO only; read-out: Emax(%)
READOUT_TYPE: Emax (%)

MOLECULE | MEASUREMENT_TARGET | READOUT_TYPE | RESULT_VALUE
C[C@H]1c2cc(OCc3ccc(Cl)cc3)c(C(F)(F)F)cc2CCN1Cc1nc2ccc(C(=O)O)nc2n1C[C@@H]1CCO1 [Compound I-178] | Human GLP-1 receptor (Homo sapiens, UniProt P43220) | Emax | 111
O=C(O)c1cc(Cl)c2nc(CN3CCc4cc(C(F)(F)F)c(OCc5ccc(Cl)cc5F)cc4C3)n(C[C@@H]3CCO3)c2c1 [Compound I-061] | Human GLP-1 receptor (Homo sapiens, UniProt P43220) | Emax | 113
Cc1ccc(COc2cc3c(cc2C(F)(F)F)CCN(Cc2nc4ccc(C(=O)O)cc4n2C[C@@H]2CCO2)C3)cc1 [Compound I-085] | Human GLP-1 receptor (Homo sapiens, UniProt P43220) | Emax | 111
C[C@H]1c2cc(OCc3cc(F)c(Cl)cc3F)c(C(F)(F)F)cc2CCN1Cc1nc2ccc(C(=O)O)c(F)c2n1C[C@@H]1CCO1 [Compound I-200] | Human GLP-1 receptor (Homo sapiens, UniProt P43220) | Emax | 102
Cc1cc2c(cc1OCc1ccc(Cl)cc1F)CN(Cc1nc3ncc(C(=O)O)cc3n1C[C@@H]1CCO1)CC2 [Compound I-028] | Human GLP-1 receptor (Homo sapiens, UniProt P43220) | Emax | 84

---

# MEASUREMENT_TARGET: Human GLP-1 receptor (Homo sapiens)
# Construct: expressed in transfected cells
# PROTOCOL_SUMMARY: Measurement of GLP-1 receptor agonist activity (cAMP assay)
# Assay type: cell-based
# STATED_CONDITIONS: CHO-K1, hGLP-1R/CHO-K1 cells, cAMP; 100% = human GLP-1 (7-36) at 2 nM, 0% = DMSO only; read-out: Emax(%)
READOUT_TYPE: Emax (%)

SUBSTANCE_SMILES | READOUT_TYPE | RESULT_VALUE
O=C(O)c1ccc2nc(CN3CCc4cc(C(F)(F)F)c(OCc5ccc(F)c(F)c5F)cc4C3)n(C[C@@H]3CCO3)c2c1 | Emax | 102
O=C(O)c1ccc2nc(CN3CCc4cc(C(F)(F)F)c(OCc5ccc(Cl)cc5)cc4C3)n(C[C@@H]3CCO3)c2c1 | Emax | 103
C[C@H]1c2nc(OCc3ccc(Cl)cc3F)c(C(F)(F)F)cc2CCN1Cc1nc2ccc(C(=O)O)cc2n1C[C@@H]1CCO1 | Emax | 108
O=C(O)c1ccc2nc(CN3CCc4cc(C(F)(F)F)c(OCc5ccc(Cl)cc5F)cc4C3)n(Cc3cccnc3)c2c1 | Emax | 87.3
COc1ccc(COc2cc3c(cc2C(F)(F)F)CCN(Cc2nc4c(F)cc(C(=O)O)cc4n2C[C@@H]2CCO2)[C@H]3C)cc1 | Emax | 105
C[C@H]1c2cc(OCc3ccc(Cl)cc3F)c(C(F)(F)F)cc2CCN1Cc1nc2ccc(C(=O)O)cc2n1C[C@@H]1CCO1 | Emax | 129
O=C(O)c1ccc2nc(CN3CCc4cc(C(F)(F)F)c(OCc5ccccc5Cl)cc4C3)n(C[C@@H]3CCO3)c2c1 | Emax | 106
O=C(O)c1ccc2nc(CN3CCc4cc(C(F)(F)F)c(OCc5ccc(F)cc5)cc4C3)n(C[C@@H]3CCO3)c2c1 | Emax | 103
Cc1cc2c(cc1OCc1ccc(Cl)cc1F)CN(Cc1nc3ccc(C(=O)O)cc3n1C[C@@H]1CCO1)CC2 | Emax | 75
O=C(O)c1ccc2nc(CN3CCc4nc(C(F)(F)F)c(OCc5ccc(Cl)cc5F)cc4C3)n(C[C@@H]3CCO3)c2c1 | Emax | 98.3

---

# MEASUREMENT_TARGET: Human GLP-1 receptor (Homo sapiens, UniProt P43220)
# Construct: expressed in transfected cells
# PROTOCOL_SUMMARY: Measurement of GLP-1 receptor agonist activity (cAMP assay)
# Format: cell-based
# STATED_CONDITIONS: hGLP-1R/CHO-K1 cells, cAMP increase, 37° C. 1 hour
# Method: Test Example 1: (Measurement of GLP-1 Receptor Agonist Activity) Human GLP-1 receptor stably expressing cells (hGLP-1R/CHO-K1 cells) are cultured in an α-MEM medium (Sigma) containing 10% FBS (Hyclone), 2% GlutaMAX (Gibco), 1% G418 (Nacalai Tesque), and 1% Penicillin-Streptomycin Mixed Solution (Sigma) at 37° C. under 5% CO2 conditions, and recovered by treating a 10 fold diluted 5.0 g/l-trypsin/5.3 mmol/l-EDTA solution (Nacalai Tesque) and cryopreserved. […]
READOUT_TYPE: EC50 (nM)

SUBSTANCE_SMILES | EC50, nM
C[C@H]1c2cc(OCc3ccccc3Cl)c(C(F)(F)F)cc2CCN1Cc1nc2ccc(C(=O)O)cc2n1C[C@@H]1CCO1 | 2.74
CCn1ccc(COc2cc3c(cc2C(F)(F)F)CCN(Cc2nc4ccc(C(=O)O)cc4n2C[C@@H]2CCO2)C3)n1 | 32.5
O=C(O)c1ccc2nc(CN3CCc4cc(C(F)(F)F)c(OCc5ccc(C6CC6)cc5)cc4C3)n(C[C@@H]3CCO3)c2c1 | 5.09
C[C@H]1c2cc(OCc3c(F)cc(Cl)cc3F)c(C(F)(F)F)cc2CCN1Cc1nc2ccc(C(=O)O)cc2n1C[C@@H]1CCO1 | 0.604
O=C(O)c1ccc2nc(CN3CCc4cc(Br)c(OCc5ccc(Cl)cc5F)cc4C3)n(C[C@@H]3CCO3)c2c1 | 19.8

[a] Cc1ccc(COc2cc3c(cc2C(F)(F)F)CCN(Cc2nc4ccc(C(=O)O)cc4n2C[C@@H]2CCO2)[C@H]3C)cc1
[b] O=C(O)c1ccc2nc(CN3CCc4cc(C(F)(F)F)c(OCc5ccc(OC(F)F)cc5)cc4C3)n(C[C@@H]3CCO3)c2c1
[c] O=C(O)c1ccc2nc(CN3CCc4cc(C(F)(F)F)c(OCc5ccc(Cl)cc5F)cc4C3=O)n(C[C@@H]3CCO3)c2c1
[d] O=C(O)c1ccc2nc(CN3CCc4cc(C(F)(F)F)c(OCc5ccn(C(F)F)n5)cc4C3)n(C[C@@H]3CCO3)c2c1
Request: Rank by EC50 (largest to smallest). In plain terms: list the labels in the order you were asked to.
Response: d, c, b, a
(d: 18.3 nM, c: 3.56 nM, b: 2.32 nM, a: 1.37 nM)

[1] O=C(O)c1ccc2nc(CN3CCc4cc(C(F)(F)F)c(OCc5ccc(F)cc5Cl)cc4C3)n(C[C@@H]3CCO3)c2c1
[2] N#Cc1ccc(COc2cc3c(cc2C(F)(F)F)CCN(Cc2nc4ccc(C(=O)O)cc4n2C[C@@H]2CCO2)C3)cc1
[3] O=C(O)c1ccc2nc(Cc3cc4nc(OCc5ccc(Cl)cc5F)c(C(F)(F)F)nc4cc3F)n(C[C@@H]3CCO3)c2c1
[4] O=C(O)c1ccc2nc(CN3CCc4cc(C(F)(F)F)c(OCc5ccc(Cl)cc5F)cc4C3)n(CC3(CF)CC3)c2c1
Request: Reorder: EC50, max to min. // format: requested-order list of labels
Response: 3, 4, 2, 1
(3: 40.3 nM, 4: 13.2 nM, 2: 5.6 nM, 1: 2.42 nM)

[a] COc1ccc(COc2cc3c(cc2C(F)(F)F)CCN(Cc2nc4ccc(C(=O)O)cc4n2C[C@@H]2CCO2)[C@H]3C)cc1
[b] O=C(O)c1cc(C(F)F)c2nc(CN3CCc4cc(C(F)(F)F)c(OCc5ccc(Cl)cc5F)cc4C3)n(C[C@@H]3CCO3)c2c1
Request: Between a and b , which one has the lower reported EC50 value? Please reply using the label of the selected record.
Response: a
(a: 2.37 nM, b: 40.3 nM)
